These data points were gathered from ChEMBL document CHEMBL1127440.

Measurement record for 5-hydroxytryptamine receptor 1A (Rattus norvegicus, UniProt P19327); quantity recorded: pKi.
One number for each entry, as −log10 of the molar value.

Field: example entries. Status: answers known.
>  <MOLECULE>
c1ccc(CN2CCN(c3cccc4ccoc34)CC2)cc1

>  <pKi>
7.66

$$$$
>  <MOLECULE>
c1ccc2c(c1)OCC(CN1CCN(c3cccc4ccoc34)CC1)O2 (stereo not given)

>  <pKi>
8.24

$$$$
>  <MOLECULE>
c1ccc(CN2CCN(c3cccc4c3OCCO4)CC2)cc1

>  <pKi>
7.55

$$$$

Would you be so kind as to report pKi for each listed record?
1. c1ccc(OCCCN2CCN(c3cccc4c3OCCO4)CC2)cc1
2. O=C(NCCN1CCN(c2cccc3c2OCCO3)CC1)C1CCCCC1

9.02
9.36

----------
TARGET_SYSTEM: 5-hydroxytryptamine receptor 1A (Rattus norvegicus)
Sequence (P19327 whole entry): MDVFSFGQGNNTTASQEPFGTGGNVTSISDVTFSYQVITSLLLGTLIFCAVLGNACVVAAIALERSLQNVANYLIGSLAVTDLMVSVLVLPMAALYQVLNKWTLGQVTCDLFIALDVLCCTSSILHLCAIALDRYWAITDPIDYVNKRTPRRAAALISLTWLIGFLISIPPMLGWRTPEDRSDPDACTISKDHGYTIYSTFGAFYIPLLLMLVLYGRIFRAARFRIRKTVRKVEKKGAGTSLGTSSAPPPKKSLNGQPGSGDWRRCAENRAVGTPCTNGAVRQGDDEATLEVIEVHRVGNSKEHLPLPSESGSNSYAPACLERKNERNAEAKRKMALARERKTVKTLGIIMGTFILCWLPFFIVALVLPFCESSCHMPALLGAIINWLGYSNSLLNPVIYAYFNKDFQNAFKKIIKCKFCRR
pKi: −log10 of the molar value.
Threshold rule: pKi greater than or equal to 9 is T; below that, F.

Some solved entries appear below for comparison.
>  <MOLECULE>
O=C(NCCN1CCN(c2cccc3ccoc23)CC1)C1CCCCC1

>  <TARGET_SYSTEM>
5-hydroxytryptamine receptor 1A (Rattus norvegicus)

>  <LABEL_VALUE>
T

$$$$
>  <MOLECULE>
c1ccc(CCN2CCN(c3cccc4c3OCCO4)CC2)cc1

>  <TARGET_SYSTEM>
5-hydroxytryptamine receptor 1A (Rattus norvegicus)

>  <LABEL_VALUE>
T

$$$$

Now turn to the next molecule.
Identify whether the reported pKi of the following molecule is 9 or greater: c1ccc2c(c1)OCC(CN1CCN(c3cccc4c3OCCO4)CC1)O2 (stereo unspecified)
F

----------
Measurement record for UniProtKB P19327; quantity recorded: Ki.
Numbers only, in nM.

Field: example entries. Status: answers known.
>  <LINE_NOTATION>
O=C(CCCN1CCN(c2cccc3ccoc23)CC1)c1ccc(F)cc1

>  <UNIT_ANNOTATION>
nM

>  <OBSERVED_VALUE>
1

$$$$
>  <LINE_NOTATION>
c1ccc(OCCN2CCN(c3cccc4c3OCCO4)CC2)cc1

>  <UNIT_ANNOTATION>
nM

>  <OBSERVED_VALUE>
0.73

$$$$

Consider the compound shown here: "O=C(CCCN1CCN(c2cccc3c2OCCO3)CC1)c1ccc(F)cc1" What is its recorded Ki?
1.4
